Provide the recorded Kd for the entries that follow.
Experimental target: human MN protein, entire extra-cellular domain with a C-terminal histag, expressed in HKB-11 cells (human, UniProt Q16790 38-414)
Experiment description: BIAcore surface plasmon resonance; Fab captured on immobilized anti-human-Fab IgG, purified human MN (HKB-11) as analyte; 1:1 Langmuir fit

Problem: Give the measured Kd of 3ee9 Fab (Fab, V domains shown, only the CDRs are tied) VH: ELVESGGGLVQPGGSLRLSCAASGFTFSSYGMSWVRQAPGKGLEWVSGISSLGSTTYYADSVKGRFTISRDNSKNTLYLQMNSLRAEDTAVYYCARTGSPGTFMHGDHWGQGTLVTVSS VL: DIQMTQSPSSLSASVGDRVTITCRASQDINNYLSWYQQKPGKAPKLLIYGASNLQSGVPSRFSGSGSGTDFTLTISSLQPEDFAVYYCQQYYGRPTTFGQGTKVEIK .
Result: 16 nM

Problem: Give the measured Kd of 3ab4 Fab (Fab, V domains shown, Only CDRs are tied to the name) VH: ELVESGGGLVQPGGSLRLSCAASGFTFSSYGISWVRQAPGKGLEWVSGISYSGSSTYYADSVKGRFTISRDNSKNTLYLQMNSLRAEDTAVYYCARLKPYRHKNGWFDYWGQGTLVTVSS VL: DIQMTQSPSSLSASVGDRVTITCRASQNISNYLNWYQQKPGKAPKLLIHKVSNLQSGVPSRFSGSGSGTDFTLTISSLQPEDFAVYYCLQYDDFPRTFGQGTKVEIK .
Result: 50 nM

Problem: Give the measured Kd of 1aa1 Fab (Fab, V domains shown, Only CDRs are tied to the name) VH: ELVQSGAEVKKPGASVKVSCKASGYTFTTNYMHWVRQAPGQGLEWMGIINPHNGSTSYAQKFQGRVTMTRDTSISTAYMELSSLRSEDTAVYYCARGRYFLMDVWGQGTLVTVSS VL: DIQMTQSPSSLSASVGDRVTITCRASQNILSYLNWYQQKPGKAPKLLIYAASSLQSGVPSRFSGSGSGTDFTLTISSLQPEDFAVYYCQQYGSVPTFGQGTKVEIK .
Result: 0.15 nM
